Please respond with reported Kd for every item in the list.
target desc: NGAL (UniProt P80188 21-198)
Sequence (P80188 21-198): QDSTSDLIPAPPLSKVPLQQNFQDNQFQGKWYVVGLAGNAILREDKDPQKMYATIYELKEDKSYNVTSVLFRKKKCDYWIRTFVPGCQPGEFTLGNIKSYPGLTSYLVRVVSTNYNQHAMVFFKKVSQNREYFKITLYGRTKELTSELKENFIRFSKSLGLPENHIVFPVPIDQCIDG
procedure summary: bead-based fluorescence binding (flow cytometry); PBSMCT: DPBS with 2.5 mM MgCl2, 0.9 mM CaCl2, 0.01% Tween 20; room temperature, 1 h; bound NGAL detected with iFluor 647 anti-His antibody (6 nM)
assay conditions: protein: commercial; tags: C-terminal His-tag; hairpin (predicted)
The answer is to be given in nM; state only the numeric part.

State the recorded Kd for this entry: GAGGATTTGGTGGATAGTAAATC (ssDNA, 5' biotin) [G13.8 (G13_23)]
1.5

Further, for ACGTTTTTGGTGGATAGCAAATG (ssDNA, 5' biotin) [G12.5 (G12_23)] ?
11
